Assay: NCI Yeast Anticancer Drug Screen. Data for the sgs1 mgt1 strain (AID 161);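 note: 0% = growth of cultures given vehicle only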
Details: S. cerevisiae sgs1 mgt1 strain, at 50.0 µM, stronger effect = higher value
About 79,000 compounds went through this panel and 15% of them were active in at least one assay; those are over-represented in the sample as a whole.
Readings of growth inhibition for the listed molecules
reported.endpoint: growth inhibition (%)

                                    molecule  measure_unit  assay_value
 0               O=C(O)c1cccc(C#Cc2ccccc2)c1             %         12.5
 1       O=C(Cl)c1cccc2c([N+](=O)[O-])cccc12             %        -2.35
 2   CC(=O)C1CC=C(C)CC1 (stereo unspecified)             %         15.8
 3  Cc1ccc2c(c1)CC1(C2=O)[C@H](c2ccccc2)C2C(=O)c3ccc(C)cc3C2[C@H]1c1ccccc1 (stereo partly specified)             %        -0.15
 4             C[n+]1ccccc1/C=C/C=C/c1ccccc1             %          1.4
 5                    N#CC1=C(Nc2ccccc2)CCC1             %         -0.8
 6  NC(CO)C(O)c1ccc([N+](=O)[O-])cc1 (stereo unspecified)             %         -3.3
 7  O=C1CCC(C2(O)c3ccccc3-c3ccccc32)C(=O)N1 (stereo unspecified)             %        -22.3
 8                      Nc1ccc(F)cc1C(F)(F)F             %        -4.55
 9   COc1ccc(-c2cc3cc(Cl)cc(Cl)c3oc2=O)cc1OC             %        -17.8
10              O=C(Cl)c1ccc2c(c1)C(=O)OC2=O             %        -11.2
11  CN1C(=O)c2cnc3ccccc3c2C1(O)c1ccccc1 (stereo unspecified)             %          2.4
12  c1ccc2c(c1)ncn2C1CCCCO1 (stereo unspecified)             %        -16.8
13  C=C1CC2C(=O)N(c3ccccc3)C(=O)C2CC1n1[nH]c(=O)n(Cc2ccccc2)c1=O (stereo unspecified)             %         9.65
14  Nc1nc2nn(-c3ccc(C(=O)NC(CCC(=O)O)C(=O)O)cc3)nc2c(=O)[nH]1 (stereo unspecified)             %         12.9
15  O=C(NCCNC(=O)c1cccc([N+](=O)[O-])c1O)c1cccc([N+](=O)[O-])c1O             %        -2.85
16                       C=CCNC(=S)Nc1ccccc1             %         4.25
17  NNC(=O)C(O)C(O)C(=O)NN (stereo unspecified)             %        -20.2
18                              O=C1CCCCCCN1             %          1.5
19  CCCCC1(CN(C)C)C(=O)N(C)C(=O)N(C2CCCCC2)C1=O (stereo unspecified)             %          1.4
20                          Cc1n[nH]c(=S)n1N             %        -24.4
21                C=CCCCCCCCCC(=O)NCc1cccnc1             %         29.6
22  O=C1c2cc(Cl)ccc2NC(=NC2CCCC2)C2CSCN12 (stereo unspecified)             %          2.8
23  CCOC(=O)CC[C@H](NC(=O)c1[nH]cnc1/N=N/N(C)C)C(=O)OCC             %          -56
24               COC(=O)c1cc2ccc(O)c(O)c2cn1             %         60.3
25  Cn1c(=O)c2c(nc(Cl)n2Cc2ccc([N+](=O)[O-])cc2)n(C)c1=O             %        -2.55
